Recorded pIC50, one value per entry.
target: His-tagged KRAS G12D protein (Homo sapiens (Human), UniProt P01116, G12D); test: KRAS G12D TR-FRET Assay; type: binding; conditions: biotinylated KRPep-2d, 10 μM GDP
Sequence (P01116-2 other isoform, or with tags, fused parts or gaps G12D): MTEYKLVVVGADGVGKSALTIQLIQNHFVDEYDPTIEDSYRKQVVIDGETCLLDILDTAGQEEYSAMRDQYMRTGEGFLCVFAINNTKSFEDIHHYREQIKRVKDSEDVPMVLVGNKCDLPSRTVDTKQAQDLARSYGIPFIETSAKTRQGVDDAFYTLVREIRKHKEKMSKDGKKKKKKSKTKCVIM
Schema: pIC50 number; meaning minus log10 of the concentration expressed in molar units.

In the examples that follow, each entry is paired with its recorded pIC50.
Data request: Look up pIC50 of N#Cc1c(N)sc2c(F)ccc(-c3c(Cl)cc4c(N5CCCC(=O)CC5)nc(OC[C@@]56CCCN5C[C@H](F)C6)nc4c3F)c12 and report it.
Data returned: 8.70

Data request: Tell me measured pIC50 for C[C@]1(CO)CCCN1c1nc(OC[C@@]23CCCN2C[C@H](F)C3)nc2c(F)c(-c3ccc(F)c4sc(N)c(C#N)c34)c(Cl)cc12 please.
Data returned: 8.10

Data request: Name the recorded pIC50 of the item CCC1(O)COCCN(c2nc(OC[C@@]34CCCN3C[C@H](F)C4)nc3c(F)c(-c4ccc(F)c5sc(N)c(C#N)c45)c(Cl)cc23)C1 (single isomer, unassigned) [Example 44] in your answer.
Data returned: 8.70

Data request: Note pIC50 for the compound shown: N#Cc1c(N)sc2c(F)ccc(-c3c(Cl)cc4c(N5CCOCC(F)(F)C5)nc(OC[C@@]56CCCN5C[C@H](F)C6)nc4c3F)c12
Data returned: 8.40

Data request: Return the recorded pIC50 value; entry: N#Cc1c(N)sc2c(F)ccc(-c3c(Cl)cc4c(N5CCC6(CCCS6(=O)=O)C5)nc(OC[C@@]56CCCN5C[C@H](F)C6)nc4c3F)c12 (stereo partly drawn)
Data returned: 7.22

Data request: Dear colleague, please send me the reported pIC50 for N#Cc1c(N)sc2c(F)ccc(-c3c(Cl)cc4c(N5CCCC6(CCS6(=O)=O)C5)nc(OC[C@@]56CCCN5C[C@H](F)C6)nc4c3F)c12 (stereo partly drawn) when you can.
Data returned: 7.36

Data request: Provide pIC50 value for the following compound: N#Cc1c(N)sc2c(F)ccc(-c3c(Cl)cc4c(N5CCOC[C@H](O)C5)nc(OC[C@@]56CCCN5C[C@H](F)C6)nc4c3F)c12
Data returned: 9.40

Data request: Check the records and state pIC50 for N#Cc1c(N)sc2c(F)ccc(-c3c(Cl)cc4c(N5CCC[C@H](O)C5)nc(OC[C@@]56CCCN5C[C@H](F)C6)nc4c3F)c12
Data returned: 8.30

Further cases:
Data request: Tell me its pIC50 given N#Cc1c(N)sc2c(F)ccc(-c3c(Cl)cc4c(N5CCCOCCC5)nc(OC[C@@]56CCCN5C[C@H](F)C6)nc4c3F)c12 (single isomer, unassigned) [Example 19] as the entry.
Data returned: 6.79

Data request: Give the reported pIC50 for this compound. N#Cc1c(N)sc2c(F)ccc(-c3c(Cl)cc4c(N5CCCC[C@H](O)C5)nc(OC[C@@]56CCCN5C[C@H](F)C6)nc4c3F)c12
Data returned: 8.52

Data request: Please list pIC50 recorded for the compound N#Cc1c(N)sc2c(F)ccc(-c3c(Cl)cc4c(N5CCCCC5)nc(OC[C@@]56CCCN5C[C@H](F)C6)nc4c3F)c12
Data returned: 8.22

Data request: Please list pIC50 recorded for the compound N#Cc1c(N)sc2c(F)ccc(-c3c(Cl)cc4c(N5CCOCC(F)C5)nc(OC[C@@]56CCCN5C[C@H](F)C6)nc4c3F)c12 (single isomer, unassigned) [Example 58]
Data returned: 8.52
